Overview of reported selectivity ratio across a group of compounds:
# Method summary: Selectivity index, ratio of HC50 for human red blood cells to IC50 for promastigote forms of Leishmania donovani MHOM/ET/1967/HU3
# Format: toxicity
# Test conditions: read-out: Selectivity Index

Example entries and their recorded answers appear below.
Compound	Reported value
C=C(C(=O)OCCOC(=O)C(=C)C(O)c1ccc(Cl)cc1)C(O)c1ccc(Cl)cc1 (stereo not drawn)	> 19.1
C=C(C(=O)OCCOC(=O)C(=C)C(O)c1ccc(Br)cc1)C(O)c1ccc(Br)cc1 (stereo not drawn)	> 400

Kindly consider the entry below.
Entry `C[C@@H]1[C@H](O)[C@@H](C)/C=C/C=C/C=C/C=C/C=C/C=C/C=C/[C@H](O[C@@H]2O[C@H](C)[C@@H](O)[C@H](N)[C@@H]2O)C[C@@H]2O[C@](O)(C[C@@H](O)C[C@@H](O)[C@H](O)CC[C@@H](O)C[C@@H](O)CC(=O)O[C@H]1C)C[C@H](O)[C@H]2C(=O)O` , selectivity ratio reported as 18.7
